FYI, the data here is from PubChem BioAssay.

# MEASUREMENT_DESCRIPTION: RAM signaling pathway blockade in yeast – S. cerevisiae, Pdr1DBD-CYC8 efflux-inhibited sensitized strain, primary screen (AID 1298);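 further: 0% = DMSO untreated cells without growth and 100% = 10 µM 1-NA-PP1 full growth; higher means more yeast growth rescued from 5-FOA killing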
# MEASUREMENT_SETUP: S. cerevisiae cbk1-as DSE1-URA3 strain, 5-FOA growth OD615, 2 d; at 50 µM; hits give high values
The source made the active and inactive calls.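 How the source made its calls: active means RAM network inhibition above 8.4% in each of two replicates, 3 SD over the compound average; inconclusive means above 8.4% inhibition in only one replicate; inactive means 8.4% inhibition or less in each replicate.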
READOUT_KIND: RAM network inhibition

[[record]]
molecule = "CC1=CCC2C(=O)N(c3ccc(C)c(Br)c3)C(=O)C2C1 (stereo unspecified)"
readout_kind = "RAM network inhibition"
result = "0% (inactive)"

[[record]]
molecule = "CCOC(=O)/C=C1\\SCC(=O)N1CCOc1cccc(Br)c1"
readout_kind = "RAM network inhibition"
result = "3.37% (inactive)"

[[record]]
molecule = "O=C1CCc2cc(S(=O)(=O)N3CCCC3C(=O)N3CCN(c4ccccc4)CC3)ccc2N1 (stereo unspecified)"
readout_kind = "RAM network inhibition"
result = "4.76% (inactive)"

[[record]]
molecule = "CN(C)C(=O)CSc1nnc(-c2cccnc2)n1-c1ccccc1"
readout_kind = "RAM network inhibition"
result = "2.91% (inactive)"

[[record]]
molecule = "Cn1nc(CC(=O)NC2CCCCCC2)c2ccccc2c1=O"
readout_kind = "RAM network inhibition"
result = "1.38% (inactive)"

[[record]]
molecule = "CCOc1cc(C2NC(=O)NC(O)(C(F)(F)F)C2C(=O)c2ccc(Cl)cc2)ccc1O (stereo unspecified)"
readout_kind = "RAM network inhibition"
result = "-0.26% (inactive)"

[[record]]
molecule = "CCC(=O)Nc1cc(C)c(NC(=O)c2ccco2)cn1"
readout_kind = "RAM network inhibition"
result = "4.21% (inactive)"

[[record]]
molecule = "O=c1[nH]c2ccc(S(=O)(=O)N3CCN(c4ccccc4F)CC3)cc2s1"
readout_kind = "RAM network inhibition"
result = "4.21% (inactive)"

[[record]]
molecule = "O=C(c1cccc(C(=O)N2CCN(c3ccccc3F)CC2)c1)N1CCN(c2ccccc2F)CC1"
readout_kind = "RAM network inhibition"
result = "4.24% (inactive)"

[[record]]
molecule = "C=CCSC1=N/C(=C\\c2ccc(C)o2)C(=O)S1"
readout_kind = "RAM network inhibition"
result = "2.06% (inactive)"

[[record]]
molecule = "Cc1cccc(OCCOCCSc2ncccn2)c1"
readout_kind = "RAM network inhibition"
result = "6.33% (inactive)"

